Values were extracted from paper PMC5085792.

Observed IC50, system catalytic domain of MMP-2 (Homo sapiens, UniProt P08253).
Field format: number, assumed µM, no unit text.

Known IC50 results, listed for orientation:
{"compound": "O=C(NCc1ccc(NC(=O)c2ccccc2)cc1)Nc1cccc2cnccc12 [Compound 7]", "IC50, µM": 7.4}
{"compound": "O=C(NCc1ccccc1)Nc1ccc2[nH]ncc2c1 [Compound 1l]", "IC50, µM": 86}
{"compound": "O=C(NCc1ccc(NS(=O)(=O)c2ccccc2)cc1)Nc1cccc2cnccc12 [Compound 5]", "IC50, µM": 54}

Below: the item to evaluate.
Prompt: Please provide the recorded IC50 for O=C(NCc1ccccc1)Nc1cccc2cnccc12 [Compound 1h] , tested on catalytic domain of MMP-2 (Homo sapiens, UniProt P08253).
Sequence (P08253 110-446 limits assumed): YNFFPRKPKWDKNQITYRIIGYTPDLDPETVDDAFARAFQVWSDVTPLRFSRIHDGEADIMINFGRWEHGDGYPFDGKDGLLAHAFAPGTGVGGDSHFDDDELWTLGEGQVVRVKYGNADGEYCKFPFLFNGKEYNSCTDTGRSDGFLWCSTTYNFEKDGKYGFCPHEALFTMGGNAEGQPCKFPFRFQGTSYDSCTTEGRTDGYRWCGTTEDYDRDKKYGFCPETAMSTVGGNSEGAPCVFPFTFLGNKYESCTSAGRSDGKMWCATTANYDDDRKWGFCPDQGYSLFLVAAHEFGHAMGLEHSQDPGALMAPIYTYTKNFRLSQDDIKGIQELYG
Completion: 15

###

Observed pIC50, system catalytic domain of MMP-13 (Homo sapiens, UniProt P45452).
Just so you know, pIC50 here is -log10 of the concentration in molar units; reply with that number alone.

Known pIC50 results, listed for orientation:
{"testSmiles": "O=C(NCc1ccc(NS(=O)(=O)c2ccccc2)cc1)Nc1cccc2cnccc12", "pIC50": 4.26}
{"testSmiles": "O=C(NCc1ccccc1)Nc1ccc2[nH]ncc2c1", "pIC50": 4.01}
{"testSmiles": "O=C(NCc1ccccc1)Nc1cccc2ncccc12", "pIC50": 4.24}

Prompt: Requested field: pIC50. Item: `O=C(NCc1ccccc1)Nc1cncc2ccccc12`
Completion: 4.14

###

quantity: melting point

Known melting point results, listed for orientation:
{"compound": "O=C(NCc1ccc(NC(=O)c2ccccc2)cc1)Nc1cccc2cnccc12 [Compound 7]", "melting point": "200 to 202 °C"}
{"compound": "O=C(NCCc1ccccc1)c1cccc2cnccc12 [Compound 2d]", "melting point": "120 to 121 °C"}
{"compound": "CC(NC(=O)NCc1ccccc1)c1ccccc1 (stereo not shown) [Compound 1w]", "melting point": "116 to 118 °C"}

Below: the item to evaluate.
Prompt: Requested field: melting point. Item: COc1cccc(CNC(=O)NCc2ccccc2)c1OC [Compound 1t]
Completion: 149 °C

###

Biological target: catalytic domain of MMP-8 (Homo sapiens, UniProt P22894)
Sequence (P22894 100-262 limits assumed): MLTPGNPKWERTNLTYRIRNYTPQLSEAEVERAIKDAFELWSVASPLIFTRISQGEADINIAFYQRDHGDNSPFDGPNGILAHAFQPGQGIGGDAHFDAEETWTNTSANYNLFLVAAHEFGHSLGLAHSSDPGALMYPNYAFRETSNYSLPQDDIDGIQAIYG
quantity: IC50 (µM)
Field format: number, assumed µM, no unit text.

{"testSmiles": "O=C(NCc1ccc(NC(=O)c2ccccc2)cc1)Nc1cccc2cnccc12", "IC50, µM": 48.5}

Prompt: Please provide the recorded IC50 for `O=C(NCc1ccc(NS(=O)(=O)c2ccccc2)cc1)Nc1cccc2cnccc12` , tested on catalytic domain of MMP-8 (Homo sapiens, UniProt P22894).
Completion: 88

###

quantity: melting point

Known melting point results, listed for orientation:
{"testSmiles": "O=C(NCc1ccccc1)Nc1ccc2[nH]ccc2c1", "melting point": "197 to 198 °C"}
{"testSmiles": "O=C(Cc1ccccc1)Nc1cccc2cnccc12", "melting point": "186 to 188 °C"}
{"testSmiles": "O=C(NCc1ccccc1)Nc1nccc2ccccc12", "melting point": "164 to 165 °C"}
{"testSmiles": "O=C(NCc1ccccc1)Nc1cccc2ccncc12", "melting point": "206 to 208 °C"}
{"testSmiles": "O=C(NCc1ccccc1)Nc1cccc2ncccc12", "melting point": "251 °C (dec.)"}

Prompt: Requested field: melting point. Item: `O=C(NCc1ccccc1)Nc1cccc2cnccc12`
Completion: 248 to 249 °C

Prompt: Item: `O=C(NCc1ccccc1)Nc1ccccn1`
Completion: 148 to 150 °C

Prompt: Item: `O=C(NCc1ccccc1)Nc1ccc2cc[nH]c2c1`
Completion: 211 to 213 °C

Prompt: Item: `O=C(NCc1ccccc1)Nc1ccnc2ccccc12`
Completion: 167 to 169 °C

Prompt: Item: `O=S(=O)(Nc1ccc2cnccc2c1)c1ccccc1`
Completion: 228 to 230 °C

Prompt: Item: `COc1ccc(CNC(=O)NCc2ccccc2)cc1OC`
Completion: 127 °C

Prompt: Item: `O=C(NCc1ccccc1)Nc1ccc2cn[nH]c2c1`
Completion: 198 to 199 °C

Prompt: Item: `O=C(NCc1ccccc1)NN1CCCC1`
Completion: 124 to 126 °C

Prompt: Item: `O=C(NCc1ccccc1)Nc1cccc2ccccc12`
Completion: 196 to 197 °C

Prompt: Item: `O=C(CCc1ccccc1)Nc1cccc2cnccc12`
Completion: 133 to 135 °C

Prompt: Item: `O=C(NCc1ccccc1)Nc1ccc(O)cc1`
Completion: 177 to 179 °C

Prompt: Item: `O=C(NCc1ccccc1)Nc1ccc2ccccc2c1`
Completion: 208 to 210 °C

Prompt: Item: `O=C(NCc1ccccc1)Nc1cc2ccccc2cn1`
Completion: 168 to 170 °C

Prompt: Item: `O=C(NCc1ccccc1)Nc1cccnc1`
Completion: 154 to 156 °C

Prompt: Item: `O=C(NCc1ccc(NS(=O)(=O)c2ccccc2)cc1)Nc1cccc2cnccc12`
Completion: 117 to 119 °C

Prompt: Item: `O=C(NCc1ccccc1)Nc1cncc2ccccc12`
Completion: 235 to 237 °C

Prompt: Item: `O=C(NCc1ccccc1)c1cccc2cnccc12`
Completion: 182 to 183 °C
